All values here come from paper PMC10397247.

# tgt: T1, 4H717-AA
# T1 chain: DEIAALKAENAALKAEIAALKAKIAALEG
# test-summary: two-hybrid library CCmax;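 further: natural log of median RNA to DNA barcode read ratio; higher means stronger binding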
# condition-context: mean of both orientations
measured-metric: interaction score
Number, no unit, nothing else.

// known answers, use as guide
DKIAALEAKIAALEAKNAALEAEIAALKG [4H2354-AA] = -1.79
DEIAALEAKNAALKAEIAALEAKIAALKG [4H454-AA] = 0.898
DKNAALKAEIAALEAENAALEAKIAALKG [4H3606-AA] = -1.65
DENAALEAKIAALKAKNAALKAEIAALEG [4H1401-AA] = -1.5
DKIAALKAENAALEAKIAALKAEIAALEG [4H2729-AA] = 1.12

Shift focus to the following entry.
# interaction score of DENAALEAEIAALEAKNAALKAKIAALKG [4H1086-AA] = -1.78
